Consider the following molecules; for each one, report its pIC50.
Target: phospholipase A2 from human leucocytes
Experiment: In vitro test for the determination of the inhibition of phospholipase A2 from human leucocytes
Conditions: enzyme from human leucocytes, 14C-oleic acid labelled E. coli phospholipids, pH 7, 37° C., 1 hour; read-out: IC50, concentration which causes an inhibition of 50% of the control activity of phospholipase A2
Quick note: pIC50 values are minus log10 of concentrations in mol/L.

Q) I have this molecule here, CC(=O)c1ccc(OCCCOc2cc(NC(=O)c3nnn[nH]3)c(C)cc2Br)c(CCC(F)(F)F)c1O , and I need its recorded pIC50.
A) 4.92

Q) I have this molecule here, CC(=O)c1ccc(OCCCOc2cc(NC(=O)c3nnn[nH]3)c(C)cc2Cl)c(CCC(F)(F)F)c1O , and I need its recorded pIC50.
A) 4.89

###

Consider the following compounds; for each one, report its pIC50.
Tested on: LTD4 -induced contractions of the guinea-pig ileum
Experiment: Inhibiting effect on LTD4-induced contractions of the guinea-pig ileum
Format: cell-based
Conditions: Cavia porcellus; isolated guinea-pig ileum, Tyrode solution, 38° C.; read-out: IC50, concentration which reduces LTD4 -induced contractions to 50% of the starting value
Quick note: pIC50 values are minus log10 of concentrations in mol/L.

Q) I have this compound here, CCCc1c(OCC(O)COc2cccc(NC(=O)C(=O)O)c2C#N)ccc(C(C)=O)c1O (centres unmarked) [reference compound] , and I need its recorded pIC50.
A) 7.06

Q) I have this compound here, CC(=O)c1ccc(OCCCOc2cc(NC(=O)c3nnn[nH]3)c(C)cc2Br)c(CCC(F)(F)F)c1O , and I need its recorded pIC50.
A) 8.00
